# Lookup of reported solubility at 3 h keyed by entry
method-summary: Aqueous solubility of the compound in pH 7.4 phosphate buffer at 1 mg after 3 hrs by UV absorption analysis
Type: physicochemical

Give the value of solubility at 3 h reported for the following: COc1cc(/C=N/n2cnnc2)c2c(c1O)CN1CCc3cc4c(cc3C1C2)OCO4 (stereo not given)
392 µg/mL

Give the value of solubility at 3 h reported for the following: COc1cc(C=O)c2c(c1O)CN1CCc3cc4c(cc3C1C2)OCO4 (stereo not given)
79 µg/mL

Give the value of solubility at 3 h reported for the following: COc1cc(/C=N/n2cnnc2)c2c(c1OCc1ccccc1)CN1CCc3cc4c(cc3C1C2)OCO4 (stereo not given)
178 µg/mL

Give the value of solubility at 3 h reported for the following: "COc1ccc2cc3[n+](cc2c1OC)CCc1cc2c(cc1-3)OCO2"
85 µg/mL

Give the value of solubility at 3 h reported for the following: CCCCOc1c(OC)cc(/C=N/n2cnnc2)c2c1CN1CCc3cc4c(cc3C1C2)OCO4 (stereo not given)
121 µg/mL
